Simple rule here: logP less than 3 is y, otherwise n.

- NC(=O)c1ccc(-c2cnc(SCCc3c[nH]cn3)[nH]2)cc1: y
- c1ccc(-c2cnc(SCCc3c[nH]cn3)[nH]2)cc1: y
- O=[N+]([O-])c1cccc(-c2cnc(SCCc3c[nH]cn3)[nH]2)c1: y

Ask | I wonder whether Brc1cccc(-c2cnc(SCCc3c[nH]cn3)[nH]2)c1 has logP below 3. Can you tell?
Reply | n

Ask | I wonder whether CCCc1ccc(-c2cnc(SCCc3c[nH]cn3)[nH]2)cc1 has logP below 3. Can you tell?
Reply | n

Ask | I wonder whether O=[N+]([O-])c1ccc(-c2cnc(SCCc3c[nH]cn3)[nH]2)cc1 has logP below 3. Can you tell?
Reply | y

Ask | I wonder whether Clc1ccc(-c2cnc(SCCc3c[nH]cn3)[nH]2)cc1 has logP below 3. Can you tell?
Reply | n

Ask | I wonder whether CCCCOc1ccc(-c2cnc(SCCc3c[nH]cn3)[nH]2)cc1 has logP below 3. Can you tell?
Reply | n

Ask | I wonder whether O=S(=O)(Oc1ccc(-c2cnc(SCCc3c[nH]cn3)[nH]2)cc1)c1ccccc1 has logP below 3. Can you tell?
Reply | n

Ask | I wonder whether CCCc1cccc(-c2cnc(SCCc3c[nH]cn3)[nH]2)c1 has logP below 3. Can you tell?
Reply | n

Ask | I wonder whether NC(=O)c1cccc(-c2cnc(SCCc3c[nH]cn3)[nH]2)c1 has logP below 3. Can you tell?
Reply | y
